Items are presented alongside their recorded % Control of footpad swelling.
Tested on: Sheep Erythrocytes induced Delayed Type Hypersensitivity
Assay: Sheep erythrocytes induced delayed type hypersensitivity (footpad swelling)
Format: in vivo, mice (ddY)
Conditions: Table 4; oral, 100 mg/kg, 4 days; 24 hours after challenge
measurementType: % Control of footpad swelling (%)

* CCOC(=O)Cc1ccc(N)cc1 [Compound 1, Ethyl p-aminophenylacetate] | 85.9
* CCOC(=O)Cc1ccc(NC(C)=O)cc1 [Compound 4, Ethyl 4-acetylaminophenylacetate] | 93.8
* Cn1cnc([N+](=O)[O-])c1Sc1ncnc2nc[nH]c12 [Azathioprine, reference compound] | 49.0
* CC(=O)Nc1ccc(CC(=O)O)cc1 [Compound 10, 4-Acetylaminophenylacetate] | 85.7

Hey, just so you know, these numbers are from patent US4720506A.
